Please go through the items and note down their RP-LC retention time.
- ASSAY_TEXT: gradient 5% acetonitrile 3 min, to 50% in 2 min, to 85% in 15 min, held 3 min, 100 µL/min
- CONDITION_DETAILS: column: Zorbax Extend-C18 2.1 x 50 mm; eluents: water / acetonitrile, 0.1% formic acid
Numbers only, in s.

Solved cases (2 shown):
- COMPOUND: "O=C(c1cccc(C(F)(F)F)c1)N1CCN(c2nc(CN3CCCCC3)cs2)CC1"
  NUMERIC_RESULT: 684
- COMPOUND: "CC1CCN(S(=O)(=O)c2nn(Cc3ccccn3)cc2C(=O)O)CC1"
  NUMERIC_RESULT: 721

Would you mind giving RP-LC retention time for every compound in the list below?
1. CNC(=O)C1CCCN(c2nc3ncn(CC(=O)Nc4ccc(Cl)cc4)c(=O)c3s2)C1 (configuration not stated)
2. CCOc1cc(C(=O)N2CCNC(=O)C2C)cc(OCC)c1OCC (configuration not stated)
3. COCCCNC(=O)C1CCN(c2cncnc2N(C)C)CC1
4. CC(C)CC(=O)N1CCN(c2nc(CN3CCOCC3)cs2)CC1
5. O=C(c1c(F)cccc1Cl)N1CCc2nc(-c3ccc(F)cc3)ncc2C1
6. Cc1ccc(NC(=O)C2CCN(S(C)(=O)=O)c3ccccc3O2)c(C)c1 (configuration not stated)
7. Cc1ccccc1-n1ccn(Cc2nc(-c3cccc(Br)c3)no2)c(=O)c1=O
8. O=C(c1cc(-c2ccncc2)n[nH]1)N1CCN(C(=O)c2cccc3[nH]ccc23)CC1

1. 685
2. 638
3. 568
4. 590
5. 1020
6. 894
7. 931
8. 571

Would you mind giving RP-LC retention time for every compound in the list below?
1. CCN(CC)S(=O)(=O)c1ccc2c(c1)N(CC(=O)NCC1COCCO1)C(=O)C1CCCCN21 (configuration not stated)
2. COC(=O)CNC(=O)Cc1c(C)nn(-c2nc(-c3ccc(C)cc3)cs2)c1C
3. Cc1cc2n(n1)CCCN2C(=O)CCC(=O)N1CCc2ccccc2C1

1: 769; 2: 963; 3: 699

Would you mind giving RP-LC retention time for every compound in the list below?
1. COc1cc(-c2noc(-c3nn(-c4cccc(C)c4)ccc3=O)n2)cc(OC)c1OC
2. O=C(NCc1ccccc1)N1CC(Oc2ccc(-c3nc(-c4ccccc4)no3)cc2)C1
3. CC(=O)Nc1ccc(CCc2nc3ccc(C(=O)NC4CCCCCC4)cc3[nH]2)cc1

1. 888
2. 1130
3. 650

State the recorded RP-LC retention time for this entry: "CCOc1ccc(-c2ccc(SCC)nn2)cc1"
941

----------
- ASSAY_TEXT: gradient 5% acetonitrile 3 min, to 50% in 2 min, to 85% in 15 min, held 3 min, 100 µL/min
- CONDITION_DETAILS: column: Zorbax Extend-C18 2.1 x 50 mm; eluents: water / acetonitrile, 0.1% formic acid
# strict inequality: RP-LC retention time < 700 s yields Criterion met, everything else yields Criterion not met

Example cases with answers are listed next.
- MOLECULE: "CC(C)CC(=O)N1CCC(Cc2nnc(-c3ccccc3)o2)CC1"
  GROUP_LABEL: "Criterion not met"
- MOLECULE: "CC(C)n1cnc2ccc(-c3noc(CSc4ccncc4)n3)cc21"
  GROUP_LABEL: "Criterion met"
- MOLECULE: "CC(=O)N1c2ccc(S(=O)(=O)N3CCCCCC3)cc2CC1C(=O)NCc1ccccc1 (stereo unspecified)"
  GROUP_LABEL: "Criterion not met"
- MOLECULE: "Cc1cc(N2CCN(C)CC2)nc2ccc(NC(=S)NCc3ccc(F)cc3)cc12"
  GROUP_LABEL: "Criterion met"
- MOLECULE: "Cc1oc(-c2ccc(C(=O)NCCN(C)C)cc2)nc1CS(=O)c1ccccc1 (stereo unspecified)"
  GROUP_LABEL: "Criterion met"

Answer whether the molecule "NC(=O)c1ccsc1NC(=O)c1ccccc1[N+](=O)[O-]" has RP-LC retention time strictly less than 700 s
Criterion met

Answer whether the molecule "CCOc1ccc(-c2csc(Nc3ccc(F)cn3)n2)cc1" has RP-LC retention time strictly less than 700 s
Criterion not met

Answer whether the molecule CCC(C)NC(=O)Cn1c(=O)cc(-c2nc(C)no2)c2ccccc21 (stereo unspecified) has RP-LC retention time strictly less than 700 s
Criterion not met

Answer whether the molecule CCCc1nc2cccnc2n1C1CCN(C(=O)c2ccc(N3CCCC3=O)cc2)C1 (stereo unspecified) has RP-LC retention time strictly less than 700 s
Criterion met

Answer whether the molecule "CCc1ccccc1Nc1c(-c2nc(C)no2)cnc2nc(C)ccc12" has RP-LC retention time strictly less than 700 s
Criterion not met

Answer whether the molecule CCC(=O)N1CCc2cc(N3CC(C(=O)NCc4ccc(F)cc4)CC3=O)ccc21 (stereo unspecified) has RP-LC retention time strictly less than 700 s
Criterion not met

Answer whether the molecule "Cc1ccc(Nc2nc(-c3ccc(C)cc3)c(C)s2)cc1" has RP-LC retention time strictly less than 700 s
Criterion not met

Answer whether the molecule "CCN(CC)c1nc2cc(C(=O)NCC(C)C)ccc2c(=O)n1Cc1ccccc1" has RP-LC retention time strictly less than 700 s
Criterion not met

Answer whether the molecule "Cc1nc(-c2cc(S(=O)(=O)Nc3cccc(Br)c3)c(C)s2)cs1" has RP-LC retention time strictly less than 700 s
Criterion not met

Answer whether the molecule "O=C(c1ccc(-c2nccnc2N2CCCC2)cc1)N1CCN(c2ccccc2)CC1" has RP-LC retention time strictly less than 700 s
Criterion not met

Answer whether the molecule CSc1cccc(NC(=O)C2CCCN(C(=O)c3cc(-c4ccncc4)n[nH]3)C2)c1 (stereo unspecified) has RP-LC retention time strictly less than 700 s
Criterion met

Answer whether the molecule "Cc1csc(-c2cc(S(=O)(=O)Nc3ccc(Cl)cc3F)c(C)s2)n1" has RP-LC retention time strictly less than 700 s
Criterion not met

Answer whether the molecule O=C(NC1CCCN(c2cc(-c3ccc(F)cc3)[nH]n2)C1)c1ccc2c(c1)OCO2 (stereo unspecified) has RP-LC retention time strictly less than 700 s
Criterion not met

----------
- ASSAY_TEXT: gradient 5% acetonitrile 3 min, to 50% in 2 min, to 85% in 15 min, held 3 min, 100 µL/min
- CONDITION_DETAILS: column: Zorbax Extend-C18 2.1 x 50 mm; eluents: water / acetonitrile, 0.1% formic acid
EXPERIMENTAL_ENDPOINT: RP-LC retention time (s)
Numbers only, in s.

Would you mind giving RP-LC retention time for every compound in the list below?
1. Cc1cc(S(=O)(=O)N2CCCCC2c2nncn2C)ccc1F (stereo not given)
2. O=C1NC(=O)/C(=C\c2ccccc2Br)S1
3. CCc1nnc(-c2cc(NS(=O)(=O)CC)c(C)s2)o1
4. COc1ccc2c(c1)C1CC(C)(O2)N(C)C(=O)C1S(=O)(=O)c1ccc(C)c(C)c1 (stereo not given)
5. CN1CCN(CCNC(=O)C2CCN(c3nc4ccccc4n(C)c3=O)CC2)CC1
6. CCCC(NC(=O)c1ccc(OC)c(OC)c1)C(=O)Nc1nc2ccccc2[nH]1 (stereo not given)
7. CC1CC(=O)c2cnc(N3CCN(Cc4ccccc4)CC3)nc2C1 (stereo not given)
8. COc1cccc(S(=O)(=O)N2CCCC(c3nn[nH]n3)C2)c1 (stereo not given)

[717, 821, 810, 1030, 588, 650, 643, 717]

Would you mind giving RP-LC retention time for every compound in the list below?
1. Fc1ccc(C2Cn3nnc(-c4nc(-c5cccc(Cl)c5)no4)c3CO2)cc1 (stereo not given)
2. Cc1cccc(CNC(=O)c2cc3n(n2)CC(C)(C(=O)NC2CCCCC2)N(C)C3=O)c1 (stereo not given)
3. Cc1ccccc1-c1noc(Cc2nnc(-c3cccc(Cl)c3)o2)n1
4. CC(C)c1ccc(N2C(=O)CN(S(C)(=O)=O)CC2(C)C(=O)NCc2ccc(Cl)cc2)cc1 (stereo not given)
5. O=C(NCc1ccc(S(=O)(=O)c2cc(F)cc(F)c2)cc1)c1ccc2nccn2c1

1: 1260; 2: 884; 3: 1140; 4: 966; 5: 724

Would you mind giving RP-LC retention time for every compound in the list below?
1. Cc1ccc(CNC(=O)N2CCC(OC3CCN(S(C)(=O)=O)CC3)CC2)cc1
2. O=S(=O)(c1ccc2c(c1)OCCO2)N1CC[C@@H]2COCCN(Cc3cccnc3)[C@@H]2C1
3. Cc1ccc2c(=O)c3c([nH]c2c1C)CCN(CC(=O)Nc1ccc2c(c1)OCCO2)C3
4. Cc1ccc(C)c(S(=O)(=O)N2C[C@@H](F)C[C@H]2C(=O)N2CCCCC2)c1
5. COc1cc(OC)c(NC(=O)N2CCC3(C2)c2nc[nH]c2CCN3C)cc1Cl (stereo not given)
6. O=C(c1nnn2c1COC(c1ccc(Cl)cc1)C2)N1CCN(C(=O)C2(c3ccccc3)CC2)CC1 (stereo not given)
7. Cn1cc(-c2ccncc2)cc1C(=O)NCc1cccc(F)c1
8. CCn1nccc1C(=O)N1CCCC1c1ccccc1C (stereo not given)

1: 760; 2: 629; 3: 667; 4: 856; 5: 569; 6: 996; 7: 630; 8: 836
